pIC50: −log10 of the molar value.
Here's what we have: pIC50 numbers for Xanthine dehydrogenase/oxidase (Homo sapiens, UniProt P47989).
readout-label: pIC50

Example entries begin here.
O=c1cccc2oc(C=Cc3ccc(O)cc3)cc(O)c1-2 [2-Styrylchromone derivate, 2a] = 4.11
O=c1cc(C=Cc2ccccc2)oc2cc(O)cc(O)c12 [2-Styrylchromone derivate, 1d] = 5.60
O=c1cc(/C=C/c2ccc(O)c(O)c2)oc2cc(O)ccc12 [2-Styrylchromone derivate, 3b] = 5.69

[P] O=c1cc(O)cc2oc(C=Cc3ccc(O)c(O)c3)cc(O)c1-2 [2-Styrylchromone derivate, 3c]
[Q] O=c1cc(/C=C/c2ccccc2)oc2cc(O)ccc12 [2-Styrylchromone derivate, 1c]
Between the entries labeled P and Q , whose measured pIC50 is lower? Response format: the label of the selected entry.
Q

###

Target: Xanthine dehydrogenase/oxidase (Homo sapiens, UniProt P47989)
Sequence (P47989 whole entry): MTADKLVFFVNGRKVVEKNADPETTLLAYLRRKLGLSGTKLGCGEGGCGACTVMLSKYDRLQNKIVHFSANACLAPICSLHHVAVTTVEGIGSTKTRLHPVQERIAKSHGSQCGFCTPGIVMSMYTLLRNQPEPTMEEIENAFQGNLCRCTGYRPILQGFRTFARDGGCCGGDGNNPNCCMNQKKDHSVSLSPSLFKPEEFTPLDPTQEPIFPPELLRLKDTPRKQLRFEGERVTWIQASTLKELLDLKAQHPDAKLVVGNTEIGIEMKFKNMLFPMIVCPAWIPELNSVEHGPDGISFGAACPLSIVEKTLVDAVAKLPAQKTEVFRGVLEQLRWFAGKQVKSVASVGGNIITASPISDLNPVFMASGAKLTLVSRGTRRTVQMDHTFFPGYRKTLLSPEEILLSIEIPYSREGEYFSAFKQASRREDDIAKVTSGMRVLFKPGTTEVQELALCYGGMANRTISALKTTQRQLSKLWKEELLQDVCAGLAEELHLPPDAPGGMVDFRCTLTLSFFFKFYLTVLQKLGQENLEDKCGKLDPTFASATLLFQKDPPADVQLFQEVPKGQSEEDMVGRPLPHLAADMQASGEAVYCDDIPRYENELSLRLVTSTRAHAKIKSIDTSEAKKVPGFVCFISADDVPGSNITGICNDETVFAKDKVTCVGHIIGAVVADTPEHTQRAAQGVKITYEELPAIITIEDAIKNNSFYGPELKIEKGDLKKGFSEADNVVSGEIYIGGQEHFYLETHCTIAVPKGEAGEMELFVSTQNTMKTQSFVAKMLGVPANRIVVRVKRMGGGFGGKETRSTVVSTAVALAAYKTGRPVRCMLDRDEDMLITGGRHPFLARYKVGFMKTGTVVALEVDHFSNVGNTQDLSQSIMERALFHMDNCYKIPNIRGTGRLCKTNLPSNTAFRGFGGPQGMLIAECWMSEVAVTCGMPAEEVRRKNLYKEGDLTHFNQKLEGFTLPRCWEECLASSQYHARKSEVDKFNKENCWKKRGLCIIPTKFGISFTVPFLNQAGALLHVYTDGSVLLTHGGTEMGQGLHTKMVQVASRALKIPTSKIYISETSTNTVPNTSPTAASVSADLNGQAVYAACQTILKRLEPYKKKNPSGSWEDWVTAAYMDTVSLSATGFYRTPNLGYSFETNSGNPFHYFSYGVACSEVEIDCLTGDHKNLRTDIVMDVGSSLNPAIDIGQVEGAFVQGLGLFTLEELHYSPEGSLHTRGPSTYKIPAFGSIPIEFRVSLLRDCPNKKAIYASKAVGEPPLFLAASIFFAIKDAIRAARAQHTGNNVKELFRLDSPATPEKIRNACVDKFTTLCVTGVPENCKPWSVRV
readout-label: IC50 (µM)

O=c1cc(/C=C/c2ccc(O)cc2)oc2cc(O)ccc12 [2-Styrylchromone derivate, 2b] = 19.6

[A] O=c1cc(C=Cc2ccc(O)cc2)oc2cc(O)cc(O)c12 [2-Styrylchromone derivate, 2c]
[B] O=c1cccc2oc(C=Cc3ccc(O)c(O)c3)cc(O)c1-2 [2-Styrylchromone derivate, 3a]
[C] O=c1cccc2oc(C=Cc3ccccc3)cc(O)c1-2 [2-Styrylchromone derivate, 1b]
Please rank these molecules by IC50 in descending order. In your reply, arrange the labels in the requested order.
C, A, B
